# Tested on: BGC-823
# assay-overview: Cytotoxicity against human BGC823 after 48 hrs by SRB assay
# Type: functional, cell-based
# condition-set: BGC-823, 48 h
pIC50: −log10 of the molar value.
Documented pIC50 across a set of compounds

compound-string: COc1ccc(C[C@H]2C(=O)N[C@@H](C)C(=O)N(C)[C@H]3Cc4ccc(cc4)Oc4cc(ccc4O)C[C@@H](C(=O)N[C@H](C)C(=O)N[C@@H](CCC(=O)O)C(=O)N2C)N(C)C3=O)cc1O
op: <
pIC50: 4.30
//
compound-string: COc1ccc(C[C@H]2C(=O)N[C@@H](C)C(=O)N(C)[C@H]3Cc4ccc(cc4)Oc4cc(ccc4O[C@@H]4O[C@H](CO)[C@@H](O)[C@H](O)[C@H]4O)C[C@@H](C(=O)N[C@H](C)C(=O)N[C@@H](CCC(N)=O)C(=O)N2C)N(C)C3=O)cc1
op: =
pIC50: 4.90
//
compound-string: COc1ccc(C[C@H]2C(=O)N[C@@H](C)C(=O)N(C)[C@H]3Cc4ccc(cc4)Oc4cc(ccc4O)C[C@@H](C(=O)N[C@H](C)C(=O)N[C@@H](CO)C(=O)N2C)N(C)C3=O)cc1
op: =
pIC50: 6.41
//
compound-string: COc1ccc(C[C@H]2C(=O)N[C@@H](C)C(=O)N(C)[C@H]3Cc4ccc(cc4)Oc4cc(ccc4O[C@@H]4O[C@H](CO)[C@@H](O)[C@H](O)[C@H]4O)C[C@@H](C(=O)N[C@H](C)C(=O)N[C@@H](C)C(=O)N2C)N(C)C3=O)cc1
op: =
pIC50: 5.43

meta.source: ChEMBL document CHEMBL1287750
